// protein stability index lookup, one value per entry
B1: HDAC6 (parent)
chain: QYMNEGELRVLADTYDSVYLHPNS

variants of: B1; experiment: protein stability index of a GFP-peptide fusion (GPS, HEK-293T) (PSI 1-6); higher = more stable; details: c terminus: a fixed tail appended;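 further: lentivirally expressed fusions sorted by FACS into six bins by GFP to DsRed ratio, PSI derived from sequencing read proportions per bin multiplied by bin number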
Assay readout: protein stability index

[[record]]
sequence_variant = "L11K"
assay_readout = "protein stability index"
numeric_readout = 3.03

[[record]]
sequence_variant = "P22A"
assay_readout = "protein stability index"
numeric_readout = 2.15

[[record]]
sequence_variant = "S17P"
assay_readout = "protein stability index"
numeric_readout = 3.32

[[record]]
sequence_variant = "S24W"
assay_readout = "protein stability index"
numeric_readout = 1.24

[[record]]
sequence_variant = "L11P"
assay_readout = "protein stability index"
numeric_readout = 3.49

[[record]]
sequence_variant = "L11I"
assay_readout = "protein stability index"
numeric_readout = 1.78

[[record]]
sequence_variant = "A12P"
assay_readout = "protein stability index"
numeric_readout = 3.17

[[record]]
sequence_variant = "P22I"
assay_readout = "protein stability index"
numeric_readout = 2.08

[[record]]
sequence_variant = "Y19E"
assay_readout = "protein stability index"
numeric_readout = 3.03

[[record]]
sequence_variant = "Y15S"
assay_readout = "protein stability index"
numeric_readout = 3.18

[[record]]
sequence_variant = "E7I"
assay_readout = "protein stability index"
numeric_readout = 1.81

[[record]]
sequence_variant = "E7R"
assay_readout = "protein stability index"
numeric_readout = 1.55

[[record]]
sequence_variant = "S17R"
assay_readout = "protein stability index"
numeric_readout = 2.18

[[record]]
sequence_variant = "L8I"
assay_readout = "protein stability index"
numeric_readout = 2.86

[[record]]
sequence_variant = "E7S"
assay_readout = "protein stability index"
numeric_readout = 2.04

[[record]]
sequence_variant = "H21W"
assay_readout = "protein stability index"
numeric_readout = 1.84

[[record]]
sequence_variant = "N23E"
assay_readout = "protein stability index"
numeric_readout = 2.69

[[record]]
sequence_variant = "R9A"
assay_readout = "protein stability index"
numeric_readout = 1.76

[[record]]
sequence_variant = "G6T"
assay_readout = "protein stability index"
numeric_readout = 1.85

[[record]]
sequence_variant = "L11Y"
assay_readout = "protein stability index"
numeric_readout = 2.14

[[record]]
sequence_variant = "S24L"
assay_readout = "protein stability index"
numeric_readout = 1.52

[[record]]
sequence_variant = "V10H"
assay_readout = "protein stability index"
numeric_readout = 2.31

